// data source = ChEMBL document CHEMBL1201862

Please provide measured GI50 for the entries that follow.
# Test system: SNB-19
# testSummary: NCI tumour cell line growth inhibition, 48 h
Activity calls are given as the source filed them. Rule as the data show it: active = GI50 up to about 1.1 µM and inactive = higher.

Fill: GI50 (SNB-19) for this molecule `CC1=C2N3C[C@@H](n4c(=O)n(C)c(=O)n43)C23CCC1n1c(=O)n(C)c(=O)n13`
> 100 µM (inactive)

Report GI50 from SNB-19 testing of `C/C(=N/NC(=S)Nc1ccccc1C)c1ccccn1`
2.43 µM (inactive)

// fetch GI50; item: `COC(=O)/C(=C(\C)NC(C)=O)c1c(C(=O)OC)[nH]c2ccccc12` ; system: SNB-19
> 100 µM (inactive)

Please report GI50 with SNB-19 for item `c1ccc(-c2c(-c3cccs3)[nH]c(-c3cccs3)c2-c2ccccn2)nc1` .
33.5 µM (inactive)

Give the observed GI50 of C=C1C(=O)OC2CC3(C)C=CC(=O)C(=C)C3CC12 (stereo not given) for SNB-19.
8.55 µM (inactive)

Report value: GI50, system: SNB-19, molecule: `C[C@]12CC[C@H]3[C@@H](CCC4=CC(=O)CC[C@@H]43)[C@@H]1CC[C@]2(O)C(N)=O`
> 100 µM (inactive)

Write GI50 of `O=C(NCCCl)Nc1cccnc1` ; system used: SNB-19
41.4 µM (inactive)

GET GI50 where system = SNB-19 and item = CCC12CC(c3ccccc3)C(C(=O)N1)C(=O)N2 (stereo not given)
> 100 µM (inactive)

Please look at `Cn1c(=O)c2/c(n(C)c1=O)=N\C=c1\c(=O)n(C)c(=O)n(C)\c1=N\C=2` and tell me its recorded GI50 on SNB-19.
> 100 µM (inactive)

Report measured GI50 on SNB-19; entry: N#C[BH2-][n+]1cn(C2CC(OP(=O)(O)OCC3OC(n4ccc(N)nc4=O)CC3O)C(CO)O2)c2nc(N)[nH]c(=O)c21 (stereo not given)
> 100 µM (inactive)
